Origin of values: patent US12187709B2

Molecular target: Human Cbl-b (residues 40-426) (Homo sapiens (Human), UniProt Q13191)
Sequence (Q13191 40-426): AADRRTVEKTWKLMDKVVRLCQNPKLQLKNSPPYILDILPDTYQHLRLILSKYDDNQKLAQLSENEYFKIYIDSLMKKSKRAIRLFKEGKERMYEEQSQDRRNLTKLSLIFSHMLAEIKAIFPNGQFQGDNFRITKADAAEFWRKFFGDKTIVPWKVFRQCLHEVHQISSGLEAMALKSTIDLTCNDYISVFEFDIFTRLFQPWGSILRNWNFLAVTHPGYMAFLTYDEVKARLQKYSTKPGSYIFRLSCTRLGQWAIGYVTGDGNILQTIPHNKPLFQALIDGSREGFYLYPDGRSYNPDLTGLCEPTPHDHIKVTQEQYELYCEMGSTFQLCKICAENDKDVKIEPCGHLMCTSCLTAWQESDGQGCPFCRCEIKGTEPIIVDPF
Assay: Cbl-b SPR assay
Assay type: binding
Details: C-cbl SPR Kd vs Cbl-b SPR Kd
MEASURED QUANTITY: Fold of selectivity (×)

Worked cases, Fold of selectivity given:
• CO[C@H]1C[C@](c2cccc(N3Cc4c(cc(CNC5CC(C(F)F)C5)cc4C(F)(F)F)C3=O)c2)(c2nncn2C)C1 (stereo partly drawn) = 11
• CO[C@H]1C[C@](c2cccc(N3Cc4c(cc(CNC5COC5)cc4C(F)(F)F)C3=O)c2)(c2nncn2C)C1 = 11

(1) CCNc1cc([C@]2(c3nncn3C)C[C@@H](C)C2)cc(N2Cc3c(cc(CNC4(C)CCC4)cc3C(F)(F)F)C2=O)c1F
(2) Cn1cnnc1[C@]1(c2cccc(N3Cc4c(cc(CNC5(C)CCC5)cc4C(F)(F)F)C3=O)c2)C[C@H]([S@@+](C)[O-])C1 (single isomer, unassigned)
Q: // task: argmin of Fold of selectivity over [ 1 , 2 ] # respond with the chosen item's label
Ans: 1

(I) CO[C@H]1C[C@](c2cccc(N3Cc4c(cc(CNCC(C)C)cc4C(F)(F)F)C3=O)c2)(c2nncn2C)C1
(II) Cn1cnnc1C1(c2cccc(N3Cc4c(cc(C(CF)NC5(C)CCC5)cc4C(F)(F)F)C3=O)c2)CCC1 (stereo not drawn)
Q: Thinking about recorded Fold of selectivity values, which is higher, I or II ? # respond with the chosen item's label
Ans: I
(I: 14 ×, II: 2.8 ×)

(1) Cn1cnnc1[C@]1(c2cccc(N3Cc4c(cc(CNC5(C)CCC5)cc4C(F)(F)F)C3=O)c2)C[S@+]([O-])C1
(2) COC1CC([C@@H](c2cccc(N3Cc4c(cc(CNC5(C)CCC5)cc4C(F)(F)F)C3=O)c2)c2nncn2C)C1 (single isomer, unassigned) [Compound 134]
Q: // task: argmin of Fold of selectivity over [ 1 , 2 ] # respond with the chosen item's label
Ans: 2
(2: 6.6 ×, 1: 11 ×)
